test: Storage stability of ICG fluorescence in the dark at 4° C.; format: physicochemical; conditions: buffer; stored in the dark at 4° C.; exponential decay model; (95% CI)
metric.name: half-life (h)
Number in h, nothing else.

Query: Data request, read-out half-life, for CC1(C)C(/C=C/C=C/C=C/C=C2\N(CCCCS(=O)(=O)O)c3ccc4ccccc4c3C2(C)C)=[N+](CCCCS(=O)(=O)[O-])c2ccc3ccccc3c21 [Free ICG]
Reply: 28.6
